# target-of-assay: Histone deacetylase (HDAC1 and HDAC2) (Homo sapiens, UniProt Q13547+Q92769)
# experimental-details: Inhibitory activity was tested against histone deacetylase (HDAC).
# Type: protein assay
Below, each of the molecules is paired with its reported log10(IC50) value.
// units: nM (pre-log); metric: IC50; scale: log10

### Prompt Retrieve log10(IC50) measured for "Cc1ccc2[nH]c(C(=O)NCCCCCCC(=O)NO)cc2c1" and print it.
### Response 0.80

Continuing:
### Prompt # return recorded log10(IC50) for entry "Cn1c(C(=O)NCCCCCCC(=O)NO)cc2ccccc21"
### Response 1.67

### Prompt Fill in log10(IC50) for record "O=C(CCCCCCNC(=O)c1ccccn1)NO"
### Response 3.23

### Prompt Specify log10(IC50) for "O=C(CCCCCNC(=O)c1ccc2cc[nH]c2c1)NO" and stop.
### Response 1.56

### Prompt Return value of log10(IC50) for input "COc1ccc2oc(C(=O)NCCCCCCC(=O)NO)cc2c1" , no commentary.
### Response 1.18

### Prompt Assign log10(IC50) to the following record: "O=C(CCCCCCNC(=O)c1cn(-c2ccccc2)c2ccccc12)NO"
### Response 0.54
